- assay-system: vaginolysin (VLY), recombinant (Gardnerella vaginalis)
- procedure-details: cell-based or functional assay
quantity: other (nM)
Use nM as the unit, but write only the number.

Task: Find the measured other of anti-VLY scFv 23A2 (VH-VL) (scFv, V domains shown, also called 23A2-derived scFv (variant VH-VL); source: E. coli BL21(DE3), from inclusion bodies, renatured, purified (Ni-NTA); not shown: His6, N-terminal, kept) VH: QVQLEQSGAELVRSGASVKISCKASGYTFPSYNMHWVKQTPGQGLEWIGYIYPGNGVTNYNQKFKGKATLTADTSSSTAYMQISSLTSEDSAVYFCAREEGGNLLWGHFAMDYWGQGTSVTVSS VL: DIVMTQTTLSLPVSLGDQASISCRSSQSLVHSNGNTYLHWYLQKPGQSPKLLIYKVSNRFSGVPDRFSGSGSGTDFTLKISRVEAEDLGVYFCSQSTHVPPTFGGGTKLEIR and report it.
Output: 150

Task: Find the measured other of anti-VLY scFv 23A2 (VL-VH) (scFv, V domains shown, also called 23A2-derived scFv (variant VL-VH); source: E. coli BL21(DE3), from inclusion bodies, renatured, purified (Ni-NTA); not shown: His6, N-terminal, kept) VH: QVQLEQSGAELVRSGASVKISCKASGYTFPSYNMHWVKQTPGQGLEWIGYIYPGNGVTNYNQKFKGKATLTADTSSSTAYMQISSLTSEDSAVYFCAREEGGNLLWGHFAMDYWGQGTSVTVSS VL: DIVMTQTTLSLPVSLGDQASISCRSSQSLVHSNGNTYLHWYLQKPGQSPKLLIYKVSNRFSGVPDRFSGSGSGTDFTLKISRVEAEDLGVYFCSQSTHVPPTFGGGTKLEIR and report it.
Output: 110

Task: Find the measured other of anti-VLY scFv 9B4 (VH-VL) (scFv, V domains shown, also called 9B4-derived scFv (variant VH-VL); source: E. coli BL21(DE3), from inclusion bodies, renatured, purified (Ni-NTA); not shown: His6, N-terminal, kept) VH: QVQLEQSGPGLVAPSESLTITCTVSGFSLNSYGVHWVRQPPGKGLEWVGVMWAGGNTSYNSALMSRLSISKDNSKSQVFLKMNSLQTDDTAIYYCARARGAMDYWGQGTSVTVSS VL: DIVMTQTTSHLSVSLGDRVTIACKASAHINNWLAWYQQKPGNAPSLLIAGATGLETGVPSRFSGSGSGKDFTLSISSLQTEDVATYYCQQYWDTPYTFGGGTKLEIR and report it.
Output: 51

Task: Find the measured other of anti-VLY scFv 9B4 (VL-VH) (scFv, V domains shown, also called 9B4-derived scFv (variant VL-VH); source: E. coli BL21(DE3), from inclusion bodies, renatured, purified (Ni-NTA); not shown: His6, N-terminal, kept) VH: QVQLEQSGPGLVAPSESLTITCTVSGFSLNSYGVHWVRQPPGKGLEWVGVMWAGGNTSYNSALMSRLSISKDNSKSQVFLKMNSLQTDDTAIYYCARARGAMDYWGQGTSVTVSS VL: DIVMTQTTSHLSVSLGDRVTIACKASAHINNWLAWYQQKPGNAPSLLIAGATGLETGVPSRFSGSGSGKDFTLSISSLQTEDVATYYCQQYWDTPYTFGGGTKLEIR and report it.
Output: 37
